- TEST TARGET: human meprin α (Homo sapiens)
- Sequence (Q16819 66-746): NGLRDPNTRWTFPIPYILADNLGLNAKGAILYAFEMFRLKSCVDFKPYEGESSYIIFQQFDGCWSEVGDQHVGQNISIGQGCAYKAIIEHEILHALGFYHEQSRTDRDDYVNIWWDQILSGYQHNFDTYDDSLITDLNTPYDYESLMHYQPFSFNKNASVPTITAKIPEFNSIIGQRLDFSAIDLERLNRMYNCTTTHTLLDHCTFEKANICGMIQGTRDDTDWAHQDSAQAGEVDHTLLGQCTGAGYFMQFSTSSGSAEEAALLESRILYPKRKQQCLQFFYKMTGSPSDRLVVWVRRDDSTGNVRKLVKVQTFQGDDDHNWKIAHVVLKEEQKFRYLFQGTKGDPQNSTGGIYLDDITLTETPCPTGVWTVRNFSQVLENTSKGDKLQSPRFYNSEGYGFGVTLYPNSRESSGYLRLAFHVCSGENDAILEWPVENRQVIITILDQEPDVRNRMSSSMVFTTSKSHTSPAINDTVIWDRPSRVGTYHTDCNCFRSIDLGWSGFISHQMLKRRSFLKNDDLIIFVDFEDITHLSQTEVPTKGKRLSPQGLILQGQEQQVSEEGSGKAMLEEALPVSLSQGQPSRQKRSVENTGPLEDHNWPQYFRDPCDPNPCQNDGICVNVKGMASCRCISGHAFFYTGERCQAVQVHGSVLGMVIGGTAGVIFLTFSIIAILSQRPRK
MEASURE: Ki (nM)

# example entries with known answers
1) O=C(Cc1c(-c2ccc(C(=O)O)cc2)n[nH]c1-c1ccc(Cl)c(O)c1F)NO [16h]; 9.6
2) O=C(Cc1c(-c2ccccc2)nn(Cc2ccccc2)c1-c1ccccc1)NO [21e]; 1
3) O=C(Cc1c(-c2ccc3c(c2)OCO3)n[nH]c1-c1ccc(C(=O)O)cc1)NO [16f]; 10.5
4) O=C(Cc1c(-c2cccc(-c3nnn[nH]3)c2)n[nH]c1-c1ccccc1)NO [14p]; 0.7
5) O=C(Cc1c(-c2ccc3c(c2)OCO3)n[nH]c1-c1ccc2c(c1)OCO2)NO [16a]; 0.6
6) N#Cc1ccc(-c2n[nH]c(-c3ccccc3)c2CC(=O)NO)cc1 [14i]; 13.6

P = O=C(Cc1c(-c2ccccc2)nn(Cc2ccc3c(c2)OCO3)c1-c1ccccc1)NO [21f]
Q = COc1ccc(-c2n[nH]c(-c3ccccc3)c2CC(=O)NO)cc1 [14e]
R = O=C(Cc1c(-c2ccccc2)[nH]nc1[C@H]1CC[C@H](C(=O)O)CC1)NO [14s]
Input: Rank order required: Ki, descending. Kindly provide the labels arranged according to the requested ordering.
Output: R, Q, P

###

- MEASUREMENT PROTOCOL: Cell viability assay
- Format: cell-based
- SETUP CONDITIONS: human, Hep-G2 cells
MEASURE: viability at 24 h, 30 µM (%)
Response body: numeric value in %, unit text excluded.

# example entries with known answers
1. O=C(CCc1c(-c2ccccc2)nn(Cc2ccc(Cl)c(O)c2F)c1-c1ccccc1)NO [compound 22]; 100
2. O=C(Cc1c(-c2cccc(C(=O)O)c2)n[nH]c1-c1cc(F)c(O)c(Cl)c1)NO [16j]; 98
3. O=C(Cc1c(-c2cc(F)c(O)c(Cl)c2)n[nH]c1-c1ccccc1)NO [14m]; 103
4. O=C(Cc1c(-c2ccccc2)nn(Cc2cccc(C(=O)O)c2)c1-c1ccccc1)NO [21g]; 99

Now look at this entry.
Value of measured viability at 24 h, 30 µM for the entry O=C(Cc1c(-c2ccccc2)nn(Cc2ccc(Cl)c(O)c2F)c1-c1ccccc1)NO [21i] : 107
